target: KRas^G12D GNP (Homo sapiens, UniProt P01116, G12D); construct: HRas 1-166 (His-TEV-N; pProEx; ampicillin resistance) and KRas 1-169; His tag with TEV site (N, cleaved yes); made in house; host or cells: E. coli BL21(DE3); assay: 19F CPMG NMR probe binding (I/I0 vs probe concentration), GNP state; settings: non-linear regression eq 1, t=0.16 s; read-out: KD (extracted value, Table S1)
Sequence (P01116 1-169 isoform P01116-2 G12D): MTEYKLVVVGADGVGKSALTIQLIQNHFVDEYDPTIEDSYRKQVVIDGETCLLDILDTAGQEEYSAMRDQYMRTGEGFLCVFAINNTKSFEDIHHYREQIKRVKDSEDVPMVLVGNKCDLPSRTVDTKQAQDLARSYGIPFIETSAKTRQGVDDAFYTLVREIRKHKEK
readout type: Kd (µM)

I: NCCNC(=O)COCCOc1ccc(-n2ncc(C(=O)Nc3cc(O)cc4ccccc34)c2C(F)(F)F)cc1 [compound 17]
II: Cc1c(Cl)cc(O)cc1NC(=O)c1cnn(-c2ccc(OCCOCC(=O)NCCN)cc2)c1C(F)(F)F [compound 12]
**Query** Of I and II , which shows the smaller Kd value? Please respond with the label that marks your chosen entry.
**Result** I
(I: 393 µM, II: 778 µM)
